From: paper PMC10786919

Test: physchem
Positions of bridges follow the written chain, without caps; N, C: chain ends. Non-standard residues stand in square brackets, D forms with d. Residues, ends and D or L forms follow the SMILES beside them. R8 = C=CCCCCCC[C@@](C)(N)C(=O)O; Cba = N[C@@H](CC1CCC1)C(=O)O; S5 = C=CCCC[C@](C)(N)C(=O)O
value.type: EPSA

compound	value.type	assay.result
CC(=O)N[C@@H](CC(C)C)C(=O)N[C@H](C(=O)N[C@@H](Cc1ccccc1)C(=O)NC(C)(C)C(=O)N[C@H](CCC(=O)O)C(=O)N[C@@H](Cc1ccc(O)cc1)C(=O)N[C@@H](Cc1c[nH]c2ccccc12)C(=O)N[C@@H](CCC(N)=O)C(=O)N[C@@H](CC(C)C)C(=O)N[C@@H](CC1CCC1)C(=O)NC(C)(C)C(=O)N[C@@H](CO)C(=O)N[C@@H](C)C(=O)N[C@@H](C)C(N)=O)[C@@H](C)O [MP-789]	EPSA	196 A^2
CC(=O)N[C@@H](CC(C)C)C(=O)N[C@H](C(=O)N[C@@H](Cc1ccccc1)C(=O)N[C@]1(C)CCCCCCC=CCCC[C@@](C)(C(=O)N[C@@H](CO)C(=O)N[C@@H](C)C(=O)N[C@@H](C)C(N)=O)NC(=O)[C@H](CC2CCC2)NC(=O)[C@H](CCC(N)=O)NC(=O)[C@H](CCC(N)=O)NC(=O)[C@H](Cc2c[nH]c3ccccc23)NC(=O)[C@H](Cc2ccc(O)cc2)NC(=O)[C@H](CCC(=O)O)NC1=O)[C@@H](C)O [MP-864] (Ac-LTF[R8]EYWQQ[Cba][S5]SAA-NH2; staple 4-11)	EPSA	212 A^2

---

Test: Solubility assay (kinetic solubility, PBS pH 7)
Type: physicochemical
Conditions: pH 7, aqueous buffer, kinetic from dmso stock, pH 7, PBS; read-out: Solubility
Positions of bridges follow the written chain, without caps; N, C: chain ends. Non-standard residues stand in square brackets, D forms with d. Residues, ends and D or L forms follow the SMILES beside them. Lys(N3) = [N-]=[N+]=NCCCC[C@H](N)C(=O)O; R8 = C=CCCCCCC[C@@](C)(N)C(=O)O; Cba = N[C@@H](CC1CCC1)C(=O)O; S5 = C=CCCC[C@](C)(N)C(=O)O; βAla = NCCC(=O)O; Sar = CNCC(=O)O
Known solubility kinetic of a selection of compounds

compound	solubility kinetic (µM)
CC(=O)N[C@@H](CC(C)C)C(=O)N[C@H](C(=O)N[C@@H](Cc1ccccc1)C(=O)N[C@]1(C)CCCCCCC=CCCC[C@@](C)(C(=O)N[C@@H](CO)C(=O)N[C@@H](C)C(=O)N[C@@H](C)C(N)=O)NC(=O)[C@H](CC2CCC2)NC(=O)[C@H](CC(C)C)NC(=O)[C@H](CCC(N)=O)NC(=O)[C@H](Cc2c[nH]c3ccccc23)NC(=O)[C@H](Cc2ccc(O)cc2)NC(=O)[C@H](Cc2c[nH]cn2)NC1=O)[C@@H](C)O [MP-199, ATSP-7041 (E5H)] (Ac-LTF[R8]HYWQL[Cba][S5]SAA-NH2; staple 4-11)	5
CC(=O)N[C@@H](CCCCN=[N+]=[N-])C(=O)NCCC(=O)N(C)CC(=O)N[C@H](C(=O)N[C@@H](Cc1ccccc1)C(=O)N[C@]1(C)CCCCCCC=CCCC[C@@](C)(C(=O)N[C@@H](CO)C(=O)N[C@@H](C)C(=O)N[C@@H](C)C(N)=O)NC(=O)[C@H](CC2CCC2)NC(=O)[C@H](CCC(N)=O)NC(=O)[C@H](C)NC(=O)[C@H](Cc2c[nH]c3ccccc23)NC(=O)[C@H](Cc2ccc(O)cc2)NC(=O)[C@H](CCC(=O)O)NC1=O)[C@@H](C)O [MP-799] (Ac-[Lys(N3)][βAla][Sar]TF[R8]EYWAQ[Cba][S5]SAA-NH2; staple 6-13)	82.5
